# System: DU-145 prostate
# Test description: NCI-60 one-dose screen, 48 h (100 = growth as untreated, 0 = no growth, -100 = all killed)
# Run parameters: 10 µM unless noted
The panel holds about 83,000 compounds, 20% with a hit somewhere; the sample as a whole holds those more often.
Outcome measure: growth (%)
Report the value in % with no unit label.

Below: 3 molecules and their reported growth.
Exam item: Endpoint output: growth of O=C(CSc1nnc(-c2ccc3nc(-c4ccccc4)[nH]c3c2)o1)Nc1ccc(C(=O)/C=C/c2ccccc2)cc1 . Value?
Marked response: 107

Exam item: Any idea what its growth is? The molecule is COc1cccc(O)c1/C=C(/C)c1ccc2c(OC)cccc2[o+]1
Marked response: 111

Exam item: Looking for the measured growth of Nc1nc(Nc2ccccc2SSc2ccccc2Nc2nc(N)nc(-c3ccc4ccccc4c3)n2)nc(-c2ccc3ccccc3c2)n1 , can you help?
Marked response: 60.7

Moving on to the next molecule.
Exam item: Any idea what its growth is? The molecule is C[C@H]1c2[nH]c3ccccc3c2C[C@H]2C(=O)N(CCCCCCC(=O)NO)CC(=O)N21
Marked response: 95.2

====

# Tested on: UACC-62 melanoma
# Test description: NCI-60 one-dose screen, 48 h (100 = growth as untreated, 0 = no growth, -100 = all killed)
# Run parameters: 10 µM unless noted
# Experimental: Growth inhibition of the UACC-62 human tumor cell line is measured as a screen for anti-cancer activity. Cells are grown in 96 well plates and exposed to the test compound for 48 hours. Compounds are tested at a single concentration, which is 10^-5 M for most compounds. The reported endpoint is percent growth (GI% or GIPRCNT), where numbers from 0 - 100% represent growth inhibition, and numbers from -100% - 0 represent cell death. For example, a value of 40 represents 60% growth inhibition. […]
This is part of a sample that, as a whole, favours compounds with a hit. Of some 83,000 tested, about 20% had one in any assay.
Outcome measure: growth (%)
Answer format: numeric, % implied, no suffix.

Exam item: Dear colleague, I am looking for the recorded growth of the following molecule: CNC(=O)c1c(NC(=O)c2ccccc2C(F)(F)F)sc2c1CCC(=O)C2
Marked response: 16.6

***
Exam item: Could you tell me which growth is on file for COC(=O)c1[nH]nc2c1C1(C(=O)N(C)c3ccccc31)C(C#N)=C(N)O2 (stereo not given) ?
Marked response: 96.1

Exam item: # lookup: growth of CCOC(=O)C1=NNC(c2ccc(Cl)cc2)C1C(=O)N1C(=S)NC(=O)C1CC(C)C (stereo not given)
Marked response: 94.2

Exam item: What measured growth goes with C#C[C@]1(O)CC[C@H]2[C@@H]3CC=C4c5sc(-c6ccc(C)cc6)nc5CC[C@]4(C)[C@H]3CC[C@@]21C ?
Marked response: 2.15

Exam item: Could you tell me which growth is on file for Cc1ccc(S(=O)(=O)NCCNc2nc(Nc3ccc(N4CCN(C)CC4)cc3)nc3ccsc23)cc1 ?
Marked response: 103

====

# Tested on: SK-OV-3 ovarian
# Test description: NCI-60 one-dose screen, 48 h
# Run parameters: 10 µM unless noted
Compounds without any hit were thinned out: in the full panel of roughly 83,000, 20% have a hit. Calls of active or inactive are those of the source. How the source made its calls: active means growth percent below 10; inactive means the rest.
Just give me one of these, please: y (active), n (inactive)

Completed entries (count: 2):
Exam item: What is the recorded call for this compound in the test? Cc1c(Cl)cccc1S(=O)(=O)Nc1ccc2c(c1)C(=O)N(C1CCC(=O)NC1=O)C2=O (centres undefined)
Marked response: n

Exam item: What is the recorded call for this compound in the test? CN1CCN(Cc2ccc(NC(=O)c3cncc(C#Cc4cnc5ccc(N6CCN(C)CC6)nn45)c3)cc2C(F)(F)F)CC1
Marked response: n

Next:
Exam item: Call for entry Cn1cc(-c2nc(N)nnc2-c2c[nH]c3ccc(Br)cc23)c2cc(Br)ccc21 :
Marked response: n

Exam item: Outcome logged for COc1ccc([C@H]2[C@H](O)C(=O)N2c2cc(OC)c(OC)c(OC)c2)cc1F in this assay:
Marked response: n

Exam item: Please let me know the test result on file for CCNC(=O)N1CCc2cc(OC)c(OCCc3ccc(OC)nc3)cc2C1c1ccc(C)cc1C (centres undefined) .
Marked response: n

Exam item: Hi, sorry to bother you, what did the test record for NC(N)=Nc1ccc(Oc2cccc(NC(N)=Nc3ccc(Br)c(C(F)(F)F)c3)c2)cc1 ?
Marked response: n

Exam item: Outcome? CCCCCCCn1cc2c(NCCc3ccccc3)ncnc2n1
Marked response: n

Exam item: What classification did Cc1ccc(NC(=O)CNc2cc(C(N)=O)cc(F)c2C)c(Cl)c1 end up with in this test?
Marked response: n

Exam item: Hello, I am checking results. What call was entered for CCCn1cnc2c(c1=N)C(c1ccc(OC)cc1)c1sc3c(C)cccc3c1O2 (centres undefined) ?
Marked response: n

Exam item: Dear all, I need the recorded test outcome for COc1cc(OC)c(/C=C/S(=O)(=O)Cc2ccc(OC)c(NC(=O)CCC(=O)NO)c2)c(OC)c1 , thank you.
Marked response: n

Exam item: Please state the recorded outcome for this compound: O=C(Nc1ccc(F)c(F)c1)c1cc(-c2ccc(F)cc2F)ccc1O
Marked response: y

Exam item: What classification did COc1cc(OC)cc(C(=O)Nc2cccc(C#Cc3cccc4[nH]nc(N)c34)c2)c1 end up with in this test?
Marked response: n

Exam item: Recorded call for Nc1cc(-c2c[nH]c3ccc(Br)cc23)nc2cc(-c3c[nH]c4ccc(Br)cc34)nn12 ?
Marked response: n

Exam item: # lookup: test call for CCN(CC)CCn1c2ccc(O)cc2c2sc3cc(OC)ccc3c(=O)c21
Marked response: n

Exam item: Test call for this compound, please: O=C1CCCC2=C1C(c1c[nH]c3ccc(Br)cc13)Cc1cc(Br)ccc1N2 (centres undefined)
Marked response: n

Exam item: Recorded test outcome, item COc1cccc(N2CCN(c3ncnc4c3[nH]c3ccc(F)cc34)C[C@H]2C)c1
Marked response: n

Origin of values: PubChem BioAssay (NCI)
